Measured Kd, listed per entry.
target: wt BfrB (Pseudomonas aeruginosa bacterioferritin B, 24-mer) (Pseudomonas aeruginosa, UniProt Q9HY79 1-158); assay: SPR

binder	readout unit	Kd
L5A Bfd (natural protein, Pseudomonas aeruginosa) MYVCACQGVTDNQIRDAIYEGCCSYREVREATGVGTQCGKCASLAKQVVRETLNDLQSAQPVPAFGTTAFVAA	µM	82
Y2F Bfd (natural protein, Pseudomonas aeruginosa) MFVCLCQGVTDNQIRDAIYEGCCSYREVREATGVGTQCGKCASLAKQVVRETLNDLQSAQPVPAFGTTAFVAA	µM	10.7
K40A Bfd (natural protein, Pseudomonas aeruginosa) MYVCLCQGVTDNQIRDAIYEGCCSYREVREATGVGTQCGACASLAKQVVRETLNDLQSAQPVPAFGTTAFVAA	µM	7.7

Origin of values: paper PMC4708090
